Each entry below carries its recorded growth.
System: ACHN renal
Assay: NCI-60 one-dose screen, 48 h (100 = growth as untreated, 0 = no growth, -100 = all killed)
Details: 10 µM unless noted
Procedure: Growth inhibition of the ACHN human tumor cell line is measured as a screen for anti-cancer activity. Cells are grown in 96 well plates and exposed to the test compound for 48 hours. Compounds are tested at a single concentration, which is 10^-5 M for most compounds. The reported endpoint is percent growth (GI% or GIPRCNT), where numbers from 0 - 100% represent growth inhibition, and numbers from -100% - 0 represent cell death. For example, a value of 40 represents 60% growth inhibition. […]
The panel holds about 83,000 compounds, 20% with a hit somewhere; the sample as a whole holds those more often.
I only need the number, in %, no unit after it.

Known results for compounds:
O=C1CC2C=CCN2C=C1NC(=O)C1CCCCC1 (stereo unspecified) ... 105
NNC(=S)N/N=C/c1ccccn1 ... 17
COc1ccc2[nH]cc(-c3nc(-c4cn(C)c5ccncc45)cs3)c2c1 ... 83.9
C=C1C(=O)O[C@H]2[C@H]1CC/C(CNC(=O)c1cc3ccccc3[nH]1)=C\CC[C@@]1(C)O[C@@H]21 ... -77.6
CN(C)c1ccc(/C=C/C(=O)c2ccc(Nc3nc(Nc4ccc(F)cc4)nc(Nc4ccc(Cl)cc4)n3)cc2)cc1 ... 75.3

Can you look up the measured growth of `COc1ccc(-c2oc(=O)ccc2-c2cc(OC)c(OC)c(OC)c2)cc1O` for me?
56

Similarly, `O=C(CCCCNC(=O)c1cc(=O)c(O)co1)Nc1ccccc1` ?
31.5

Similarly, `COc1cc(-c2nc(NC(C)=O)sc2-c2ccnc(NCCNS(=O)(=O)c3ccccc3)n2)ccc1Cl` ?
44

---

System: NCI-H322M lung
Experiment: NCI-60 one-dose screen, 48 h
Conditions: 10 µM unless noted
The panel holds about 83,000 compounds, 20% with a hit somewhere; the sample as a whole holds those more often. Calls of active or inactive are those of the source. How the source made its calls: active means growth percent below 10; inactive means the rest.
Reply using exactly one outcome from 1 for active, 0 for inactive

Reference set (2 entries):
O=C1CCC(C(=O)NN(c2ccccc2)c2ccccc2)N1 (stereo unspecified) ... 0
COc1cc(-c2cc(-c3ccc(Nc4ncnc5cc(Cl)ccc45)cc3)nc(N3CCN(C)CC3)n2)cc(OC)c1OC ... 0

Called result for `COc1ccc2c(c1)c(-c1ccc(-c3cn(C)c4ccc(OC)cc34)[nH]1)cn2C`
0

Similarly, CN(Cc1cnc2nc(N)nc(N)c2n1)c1c(Cl)cc(C(=O)NC(CCC(=O)O)C(=O)O)cc1Cl (stereo unspecified) ?
0

Similarly, `N#CC(C#N)N=Nc1ccc(Cl)cc1Cl` ?
0

Similarly, `CCCCCCCCn1ccc2cc(NC(=O)Cn3cc(CN4CCN(CC)CC4)nn3)ccc21` ?
0

Similarly, `Nc1c(C(=O)O)cc(Cl)cc1[N+](=O)[O-]` ?
0

Similarly, `CCCn1c(=S)sc2c1nc(C)n1c(Nc3ccccc3)nnc21` ?
0

Similarly, `COc1ccc(Nc2ncc(C(N)=O)c(NCCCNC(=O)C3CCC3)n2)cc1` ?
0

---

System: UO-31 renal
Experiment: NCI-60 one-dose screen, 48 h (100 = growth as untreated, 0 = no growth, -100 = all killed)
Details: 10 µM unless noted
Compounds without any hit were thinned out: in the full panel of roughly 83,000, 20% have a hit. Calls of active or inactive are those of the source. How the source made its calls: active means growth percent below 10; inactive means the rest.
quantity.name: growth

Known results for compounds:
CC(C(=O)O)n1c(O)c(C=Nc2cccnc2)sc1=S (stereo unspecified) ... 50% (inactive)
CN(C)Cc1ccc(C(=O)Nc2ccc3ncnc(Nc4ccc(Oc5cccc(F)c5)c(Cl)c4)c3c2)cc1 ... 16% (inactive)
COc1cc2c3c(c1O)-c1ccccc1[C@@H]1OC(=O)N(CC2)[C@H]31 ... 88.5% (inactive)
Cc1nn(-c2ccccc2)c(N2CCCCC2)c1/C=N/NC(=O)Cn1c(=O)sc2ccccc21 ... 48.1% (inactive)
CCOC(=O)c1c(C)c2c(n1C)CSc1cc(S(=O)(=O)c3ccccc3)c(=O)[nH]c1-2 ... 22.7% [100 µM] (inactive)
Cc1ccc(-c2nc(C(Cl)Cl)nc3cc(C)nn23)cc1 ... 51.3% (inactive)

Can you look up the measured growth of `O=C(c1ccc(F)c(Cl)c1)N1c2ccccc2Sc2ccccc21` for me?
72.9% (inactive)

Similarly, `CCN1CCN(CC(=O)Nc2nc3ccc(NCc4ccc(Br)cc4)cc3s2)CC1` ?
59.5% (inactive)

Similarly, `Cn1cccc1/C=C1\C(=O)Nc2ccccc21` ?
62.9% (inactive)

Similarly, `COc1cc2nc(Nc3cccc(F)c3)nc(Nc3cc(C)[nH]n3)c2cc1OC` ?
-98.7% [20 µM] (active)

Similarly, `O=C1/C(=C/c2ccc(Br)cc2)COc2ccc(O)c(O)c21` ?
-99.2% (active)

Similarly, `Oc1c(CN2CCCC2)cc(COCc2ccccc2)c2cccnc12` ?
-1.58% (active)

Similarly, COc1ccc(C(c2cc(OC)c(OC)c(OC)c2)N2CCCC2)cc1 (stereo unspecified) ?
75.1% (inactive)

Similarly, `CN1C(=O)/C(=C/c2ccc(C(=O)Nc3ncc(Cc4ccc(F)cc4)s3)cc2)SC1=S` ?
46.5% (inactive)

Similarly, O=C(O)C1CN(c2cccc(Cl)c2)N(c2cccc(Cl)c2)C1=O (stereo unspecified) ?
72.2% (inactive)

Similarly, `COc1cc2c(/C=C3\C(=O)Nc4ccccc43)c(C(=O)O)[nH]c2cc1C` ?
55% (inactive)

---

System: LOX IMVI melanoma
Assay: NCI-60 one-dose screen, 48 h
Conditions: 10 µM unless noted
About 83,000 compounds went through this panel and 20% of them were active in at least one assay; those are over-represented in the sample as a whole. The source made the active and inactive calls. The calls were made as follows: active = growth percent below 10; inactive = the rest.
Reply using exactly one outcome from label 1 = active, label 0 = inactive

Called result for COC(=O)C1=C(C)NC(C)=C(C(=O)OCC(C)C)C1c1ccccc1[N+](=O)[O-] (centres undefined)
label 0

Similarly, `CCCCCCCCn1ccc2cc(NC(=O)Cn3cc(CN4CCOCC4)nn3)ccc21` ?
label 0

Similarly, `COc1cc(-c2nc(NC(C)=O)sc2-c2ccnc(NCCNS(=O)(=O)c3ccccc3)n2)ccc1Cl` ?
label 0

Similarly, `COc1ccc(-c2oc(=O)ccc2-c2cc(OC)c(OC)c(OC)c2)cc1O` ?
label 0

Similarly, `CCN(CC)c1ccc(/C=N/NC(=O)c2ccc(Nc3ccnc(C(F)(F)F)c3)cc2)c(O)c1` ?
label 1

Similarly, `CC1=C(C(=O)n2c3ccccc3c3ccccc32)C(c2cccc([N+](=O)[O-])c2)C(C(=O)n2c3ccccc3c3ccccc32)=C(C)N1` ?
label 0

Similarly, `C=CCCC(=O)N1C=CC(=O)[C@H](O)[C@@H]1/C=C/c1ccccc1` ?
label 0

Similarly, `O=C1NC(=C(Cl)Cl)/C(=N/S(=O)(=O)N2CCCCC2)N1` ?
label 1

Similarly, `N#Cc1c(-c2ccccc2)cc(-c2ccccc2)n(CCCC(=O)NO)c1=O` ?
label 1

---

System: RXF 393 renal
Test: NCI-60 one-dose screen, 48 h (100 = growth as untreated, 0 = no growth, -100 = all killed)
Conditions: 10 µM unless noted
Compounds without any hit were thinned out: in the full panel of roughly 83,000, 20% have a hit.
# Y = growth below 50% (exclusive); N = growth at/above 50%

Reference set (10 entries):
CCc1ccc(CCC(=O)Nc2ncc(Cc3ccc(Cl)cc3)s2)o1 ... Y
CC(CN)[C@@H]1CC[C@]2(CO)CC[C@]3(C)[C@H](CC[C@@H]4[C@@]5(C)CCC(N)C(C)(C)[C@@H]5CC[C@]43C)[C@@H]12 (stereo partly specified) ... N
C/C(=N\O)C(=O)NCCCCCC(=O)Nc1ccccc1 ... N
Cc1ccc(C)c(-n2c(-c3ccc(Br)cc3)csc2=NC(=O)c2ccccc2F)c1 ... N
CCOC(=O)c1c2c(n3c1NCC3)-c1ccccc1C2=O ... N
CCCCCCC(=O)Nc1ncc(Cc2ccc(C)cc2)s1 ... Y
CCCCSCC(=O)c1ccccc1 ... N
COc1ccc(/C=C/C(=O)c2cc3c(N)c(C(=O)Nc4ccc(OC)cc4)sc3nc2C)cc1 ... Y
Cc1c2cc[nH]c(=O)c2c(C)c2c1[nH]c1ccc(OC(=O)c3ccccc3)cc12 ... Y
N=c1c2c(=N)n3c(nc2nc2n1-c1ccccc1Sc1ccccc1-2)sc1cc(Cl)ccc13 ... Y

Regarding `O=c1oc2c(cnc3ccccc32)cc1-c1cccs1` , kindly confirm whether its growth is beneath 50%.
N

Similarly, `CCOC(=O)c1c(C)nc2ccccc2c1/C=C/c1ccc(OC)cc1` ?
N

Similarly, CCN1C(=O)N(CC)C2C1NN=c1s/c(=C\c3cc4ccccc4[nH]3)c(=O)n12 (stereo unspecified) ?
Y

Similarly, `CN(C)c1ccc(/C=C/C(=O)c2ccc(Nc3nc(Nc4ccc(F)cc4)nc(Nc4ccc(Cl)cc4)n3)cc2)cc1` ?
Y

Similarly, `S=c1ssnc1-c1cccs1` ?
N

Similarly, `COc1ccc(/C(C)=C(\c2ccc(Cl)cc2)c2ccc(OCCN3CCCC3)cc2)cc1` ?
Y

Similarly, `N=C(N)c1ccc(-c2ccc(-c3ccc(Cl)cc3)o2)o1` ?
Y

Similarly, `O=C1Nc2ccccc2/C1=C/c1cn(C[C@@H](O)Cn2c3ccccc3c(=O)c3ccccc32)c2ccccc12` ?
N

Similarly, `Cc1c2cnccc2c(C)c2c1c1cc(C3OCCCO3)ccc1n2C` ?
Y

Similarly, `COc1ccc2cc(Cn3cc[n+](Cc4ccc5ccccc5c4)c3)ccc2c1` ?
Y

Similarly, `N#Cc1c(-c2ccccc2)c(C#N)c2c(C#N)c(N)nn2c1N` ?
N
